Experiment: gradient 5% acetonitrile 3 min, to 50% in 2 min, to 85% in 15 min, held 3 min, 100 µL/min
Settings: column: Zorbax Extend-C18 2.1 x 50 mm; eluents: water / acetonitrile, 0.1% formic acid
Lab note: anything with RP-LC retention time at or over 900 s counts as Criterion met; the rest go in Criterion not met.

Check the entry CC(=O)Nc1ccc(S(=O)(=O)NCC2(c3cccs3)CCOCC2)c(C)c1 : does RP-LC retention time equal or exceed 900 s? Criterion not met

Threshold query (RP-LC retention time >= 900 s) on CCC(C)NC(=O)Cc1cccn1-c1ccc(F)cc1 (stereo not given) Criterion not met

Does CCOC(=O)Cc1sc(Nc2nc(C)cc(C)n2)nc1-c1ccccc1 have a reported RP-LC retention time of at least 900 s? Criterion met

Quick check, RP-LC retention time >= 900 s? CCC(C(=O)N1CCN(c2cc(C)n3cnnc3n2)CC1)c1ccccc1 (stereo not given) Criterion not met

Does the reported RP-LC retention time for CCC(C)NC(=O)c1cc2c(n(-c3ccc(C(F)(F)F)cc3)c1=O)CCCC2=O (stereo not given) fall at or above the 900 s mark? Criterion met

Please indicate if the recorded RP-LC retention time for COCCNC(=O)C1CCCN(c2ncnc3c2oc2ccccc23)C1 (stereo not given) meets or exceeds 900 s. Criterion not met

Does RP-LC retention time meet or surpass 900 s for CCc1ccc2c(c1)cc(S(=O)(=O)c1ccccc1)c(=O)n2CC(=O)NCc1ccc(F)cc1 ? Criterion met

Say whether Cc1cccc(C2CCCN2C(=O)c2nc3nc(C)cc(C(F)F)n3n2)c1 (stereo not given) shows RP-LC retention time of 900 s or more. Criterion not met

Hello, I need to know if CS(=O)(=O)NCC1CCC(C(=O)NCCCn2ccnc2)CC1 (stereo not given) has measured RP-LC retention time not below 900 s. Thanks! Criterion not met

Say whether CCCNC(=O)N1CC(c2nc(-c3ccccc3)no2)C2(CCOCC2)C1 (stereo not given) shows RP-LC retention time of 900 s or more. Criterion not met

Kindly determine if RP-LC retention time recorded for CC1(C(=O)NCc2ccc(F)cc2)CN(S(C)(=O)=O)CC(=O)N1c1cccc(Cl)c1 (stereo not given) is above or exactly 900 s. Criterion not met

Confirm if RP-LC retention time reported for the compound CCn1cc(CCNC(=O)Nc2cccc(OC)c2)c2cccnc21 is 900 s or above. Criterion not met

API: above_or_equal(metric=RP-LC retention time, cutoff=900 s) for item CCN1C(=O)c2cccc3c(S(=O)(=O)Nc4cccc(C)n4)ccc1c23 Criterion not met

Hi, just wondering whether CCN1CCN(CCNC(=O)CCC(=O)N2CC3CCCN3c3ccccc32)CC1 (stereo not given) shows RP-LC retention time of 900 s or higher. Criterion not met

Exam item: decide whether the reported RP-LC retention time for COc1ccc(OC)c(NC(=O)Cn2ncc3c(c2=O)N(C2CC2)C(=O)CS3)c1 is at least 900 s. Criterion not met

Test whether the compound Cc1ccc(S(=O)(=O)N2CC3CN(C(=O)c4ccc5c(c4)OCO5)CC(C2)O3)cc1 records RP-LC retention time of 900 s or higher. Criterion not met

Would you say COc1ccccc1-c1nnc(-c2cc(S(=O)(=O)N3CCCCCC3)ccc2Cl)o1 shows RP-LC retention time at minimum 900 s? Criterion met
